Overview of reported protein stability index across a group of variants:
B1: ZNF649 (parent)
chain: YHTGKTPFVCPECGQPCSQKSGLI

variants of: B1; test: protein stability index of a GFP-peptide fusion (GPS, HEK-293T) (PSI 1-6); higher = more stable; details: c terminus: a fixed tail appended;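 further: lentivirally expressed fusions sorted by FACS into six bins by GFP to DsRed ratio, PSI derived from sequencing read proportions per bin multiplied by bin number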
# answer = number (no unit)

Example entries begin here.
[
  {
    "VARIANT_ANNOTATION": "C13D",
    "OBSERVED_MEASUREMENT": 2.6
  },
  {
    "VARIANT_ANNOTATION": "V9E",
    "OBSERVED_MEASUREMENT": 1.61
  },
  {
    "VARIANT_ANNOTATION": "C17G",
    "OBSERVED_MEASUREMENT": 2.94
  }
]

Sample `T3C` — what was its protein stability index? 2.38

Similarly, `T6W` ? 1.96

What would you report for `H2K` ? 2.76

Now give it for `S21N` too. 1.93

Next up: `G14T` 3.65

Lookup `G14E` 1.95

Consider next the variant `Y1H` in the same way. 3.46

Next record, please: `Y1L` 2.51

Also `I24Y` , if possible. 1.59

Try `V9G` next. 1.79

Now the same for `T3L` 1.76

Try this variant too: `Q19M` 2.49

// repeat for `P11A` and report 2.04

// query: `G4I` 1.69

This collection of values is drawn from the supplement of paper PMC10567573.
